// data source = PubChem BioAssay AID2060485

# Test system: A375 multi-cell spheroids with HUVEC/MSC, viability
# test name: Anticancer human tumor A375 cell line growth inhibition [GQUAD];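 note: spheroids exposed to compounds for seven days before readout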
# test context: second compound 1 µM; first compound 0.00999 µM; active compounds read low
Field 'label' (enum: 1 / -1). Set to 1 when viability, T/C is strictly under 40%; else -1.

Quick check: viability, T/C of CCc1c2c(nc3ccc(O)cc13)-c1cc3c(c(=O)n1C2)COC(=O)[C@]3(O)CC + Cc1[nH]c2ccc(F)cc2c1-c1nc2c3cccnc3c3ncccc3c2[nH]1 under 40%?
1

Quick check: viability, T/C of Cc1[nH]c2ccccc2c1CCNCc1ccc(/C=C/C(=O)NO)cc1 + Cc1[nH]c2ccc(F)cc2c1-c1nc2c3cccnc3c3ncccc3c2[nH]1 under 40%?
-1

Quick check: viability, T/C of CC[C@@]1(O)C(=O)OCc2c1cc1n(c2=O)Cc2cc3c(CN(C)C)c(O)ccc3nc2-1 + CN(C)c1ccc(Nc2c3ccc(NC(=O)CCN4CCCC4)cc3nc3cc(NC(=O)CCN4CCCC4)ccc23)cc1 under 40%?
-1

Quick check: viability, T/C of CCc1c2c(nc3ccc(O)cc13)-c1cc3c(c(=O)n1C2)COC(=O)[C@]3(O)CC + Cc1cnc(CNC(=O)c2c(=O)c3ccc(N4CCCN(C)CC4)nc3n3c2sc2ccccc23)cn1 under 40%?
1

Quick check: viability, T/C of CC[C@@]1(O)C(=O)OCc2c1cc1n(c2=O)Cc2cc3c(CN(C)C)c(O)ccc3nc2-1 + Cc1[nH]c2ccc(F)cc2c1-c1nc2c3cccnc3c3ncccc3c2[nH]1 under 40%?
-1

Quick check: viability, T/C of CC[C@@]1(O)C(=O)OCc2c1cc1n(c2=O)Cc2cc3c(CN(C)C)c(O)ccc3nc2-1 + Cc1cnc(CNC(=O)c2c(=O)c3ccc(N4CCCN(C)CC4)nc3n3c2sc2ccccc23)cn1 under 40%?
1

Quick check: viability, T/C of Cn1ncnc1[C@H]1c2n[nH]c(=O)c3cc(F)cc(c23)N[C@@H]1c1ccc(F)cc1 + CN(C)c1ccc(Nc2c3ccc(NC(=O)CCN4CCCC4)cc3nc3cc(NC(=O)CCN4CCCC4)ccc23)cc1 under 40%?
-1

Quick check: viability, T/C of Cn1ncnc1[C@H]1c2n[nH]c(=O)c3cc(F)cc(c23)N[C@@H]1c1ccc(F)cc1 + Cc1[nH]c2ccc(F)cc2c1-c1nc2c3cccnc3c3ncccc3c2[nH]1 under 40%?
-1

Quick check: viability, T/C of CCc1c2c(nc3ccc(O)cc13)-c1cc3c(c(=O)n1C2)COC(=O)[C@]3(O)CC + CN(C)c1ccc(Nc2c3ccc(NC(=O)CCN4CCCC4)cc3nc3cc(NC(=O)CCN4CCCC4)ccc23)cc1 under 40%?
1

Quick check: viability, T/C of Cn1ncnc1[C@H]1c2n[nH]c(=O)c3cc(F)cc(c23)N[C@@H]1c1ccc(F)cc1 + Cc1cnc(CNC(=O)c2c(=O)c3ccc(N4CCCN(C)CC4)nc3n3c2sc2ccccc23)cn1 under 40%?
-1

Quick check: viability, T/C of Cc1[nH]c2ccccc2c1CCNCc1ccc(/C=C/C(=O)NO)cc1 + CN(C)c1ccc(Nc2c3ccc(NC(=O)CCN4CCCC4)cc3nc3cc(NC(=O)CCN4CCCC4)ccc23)cc1 under 40%?
-1
